Target: T1, full-length mouse Pdzk1 (mouse, UniProt Q9JIL4 1-519)
T1 sequence (looked up): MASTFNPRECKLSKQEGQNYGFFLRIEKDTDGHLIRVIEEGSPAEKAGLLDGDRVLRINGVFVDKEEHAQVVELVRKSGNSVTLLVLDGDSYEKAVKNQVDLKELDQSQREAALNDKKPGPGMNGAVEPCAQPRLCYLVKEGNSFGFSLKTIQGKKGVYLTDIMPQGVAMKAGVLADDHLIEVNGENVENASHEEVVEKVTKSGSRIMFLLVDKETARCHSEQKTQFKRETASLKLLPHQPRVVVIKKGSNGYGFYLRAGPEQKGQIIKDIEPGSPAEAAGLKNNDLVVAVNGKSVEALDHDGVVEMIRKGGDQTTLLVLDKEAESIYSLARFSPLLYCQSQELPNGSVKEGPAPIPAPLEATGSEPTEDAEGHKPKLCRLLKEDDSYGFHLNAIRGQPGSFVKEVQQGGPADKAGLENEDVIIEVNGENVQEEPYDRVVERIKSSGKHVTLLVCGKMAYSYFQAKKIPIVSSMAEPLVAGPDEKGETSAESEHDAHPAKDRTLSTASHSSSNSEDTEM
Experiment: fluorescence polarisation
Where no end group is shown, it is not given here. TAMRA = tetramethylrhodamine
property-name: Kd
State the result as a value with its unit after it.

query: Name the recorded Kd for {TAMRA}-THDTPDGSILMSTRL [Urat1 peptide (15 C-terminal residues of murine Urat1), TAMRA-labelled] .
result: 0.026 µM

Could you now consider this next binder?
query: Name the recorded Kd for {TAMRA}-SPRLALPAHHNATRL [NaPi-IIa peptide (15 C-terminal residues of NaPi-IIa), TAMRA-labelled] .
result: 4 µM
